Source of measurements: PubChem BioAssay (NCATS)

Test system: KB-3-1
testName: Cytotoxic Profiling of Annotated Libraries Using Quantitative High-Throughput Screening (AID 1296008); also: nearly all actives have a fitted effect of over 60% in size
experimentalSetup: Five cell lines viability, CellTiter-Glo ATP luminescence, 48-72 h
Records with an inconclusive call do not appear. Calls of active or inactive are those of the source. Calls follow the shape of the dose curve; as a rule, active = well fitted inhibition curve with a large enough effect; inconclusive = small, poorly fitted or top-dose-only effect; inactive = flat fitted curve, though single readings scatter.
Can you answer with just one of these options? active, inactive

CC(C)(C)CC(C)(C)c1ccc(OCCOCC[N+](C)(C)Cc2ccccc2)cc1    active
CC(=O)OCC(=O)[C@@]1(O)[C@H](C)C[C@H]2[C@@H]3CCC4=CC(=O)C=C[C@]4(C)[C@@]3(F)[C@@H](O)C[C@@]21C    inactive
CCN(CC)CCOc1ccc(C(O)(Cc2ccc(Cl)cc2)c2ccc(C)cc2)cc1 (stereo not given)    active

Which outcome did this test record for the compound NC(=NCCCCCCN=C(N)/N=C(\N)Nc1ccc(Cl)cc1)/N=C(\N)Nc1ccc(Cl)cc1 ?
active

Which outcome did this test record for the compound OC[C@H]1O[C@H](O[C@]2(CCl)O[C@H](CCl)[C@@H](O)[C@@H]2O)[C@H](O)[C@@H](O)[C@H]1Cl ?
inactive

---

testName: A High-Content qHTS Against Drug Library for the Identification of Small Molecules that Inhibit DYT1 Early Onset Primary Dystonia-Associated Cell Pathology (AID 1645839)
experimentalSetup: HEK293 Flp-In EGFP-delE TorsinA, punctate imaging, 48 h; series mostly up to 46.1 µM
Inconclusive results are not listed. Activity calls are given as the source filed them. The call rests on the fitted dose curve.
Can you answer with just one of these options? True for active, False for inactive

Observe how each entry below is paired with its result.
COc1cccc2c1C(=O)c1c(O)c3c(c(O)c1C2=O)C[C@@](O)(C(C)=O)C[C@@H]3O[C@H]1C[C@H](N)[C@H](O)[C@H](C)O1    True
Cc1c(N(C)CS(=O)(=O)O)c(=O)n(-c2ccccc2)n1C    False
CCCCC(CC)CN=C(N)NC(N)=NCCCCCCN=C(N)NC(N)=NCC(CC)CCCC (centres undefined)    True

Which outcome did this test record for the molecule Cc1cc2c(cc1CC(=O)c1sccc1S(=O)(=O)Nc1onc(C)c1Cl)OCO2 ?
False

Which outcome did this test record for the molecule CC(=O)OCC(=O)NCCCOc1cccc(CN2CCCCC2)c1 ?
False

Which outcome did this test record for the molecule CC(C)(C)NC(=O)[C@@H]1CN(Cc2cccnc2)CCN1C[C@@H](O)C[C@@H](Cc1ccccc1)C(=O)N[C@H]1c2ccccc2C[C@H]1O ?
False

Which outcome did this test record for the molecule CC(=O)OCC(=O)[C@@]1(O)[C@H](C)C[C@H]2[C@@H]3CCC4=CC(=O)C=C[C@]4(C)[C@@]3(F)[C@@H](O)C[C@@]21C ?
False

Which outcome did this test record for the molecule CN(C)CC/C=C1/c2ccccc2COc2ccc(CC(=O)O)cc21 ?
False

Which outcome did this test record for the molecule O=C1c2ccccc2C(=O)C1c1ccccc1 ?
False

Which outcome did this test record for the molecule CCCCOc1ccc(C(=O)CCN2CCCCC2)cc1 ?
True

Which outcome did this test record for the molecule Cc1ncc(CSSCc2cnc(C)c(O)c2CO)c(CO)c1O ?
False

Which outcome did this test record for the molecule CNC(=O)CN(CCN(CCN(CC(=O)[O-])CC(=O)NC)CC(=O)[O-])CC(=O)[O-].O.[Gd+3] ?
False

Which outcome did this test record for the molecule C[C@]12C=CC(=O)C=C1[C@@H](F)C[C@@H]1[C@@H]2[C@@H](O)C[C@@]2(C)[C@H]1CC[C@]2(O)C(=O)CO ?
False

Which outcome did this test record for the molecule c1ccc(CNCCNCc2ccccc2)cc1 ?
False

Which outcome did this test record for the molecule CC1(C)O[C@@H]2C[C@H]3[C@@H]4CCC5=CC(=O)CC[C@]5(C)[C@@]4(F)[C@@H](O)C[C@]3(C)[C@]2(C(=O)CCl)O1 ?
False

Which outcome did this test record for the molecule COc1c2occc2c(OC)c2c(=O)cc(C)oc12 ?
False

Which outcome did this test record for the molecule CCN(CCCCOC(=O)c1ccc(OC)c(OC)c1)C(C)Cc1ccc(OC)cc1 (centres undefined) ?
False

Which outcome did this test record for the molecule CC(=O)Nc1c(I)cc(I)c(C(=O)O)c1I ?
False

Which outcome did this test record for the molecule Cc1onc(-c2c(Cl)cccc2Cl)c1C(=O)N[C@@H]1C(=O)N2[C@@H]1SC(C)(C)[C@@H]2C(=O)O ?
False

---

testName: qHTS to identify inhibitors of the type 1 interferon - major histocompatibility complex class I in skeletal muscle: primary screen against the NCATS Pharmaceutical Collection (AID 1347407);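 also: luminescence of HiBiT knocked into endogenous HLA-B as interferon-induced MHC class I level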; also: potency is read from the fitted curve at half-maximal effect
experimentalSetup: human skeletal muscle cells, IFN-b-induced MHC-I HiBiT luminescence, 24 h; series mostly up to 45.9 µM
Source text: Assay Submitter (PI): Travis B. Kinder Ph.D. & James Inglese Ph.D. Assay Development and Screening Technology Laboratory (ADST) National Center for Advancing Translational Sciences (NCATS), Rockville, MD National Institute of Health (NIH), Bethesda, Maryland […]
Results filed as inconclusive are left out. Activity calls are given as the source filed them. Calls follow the shape of the dose curve; as a rule, active = well fitted inhibition curve with a large enough effect; inconclusive = small, poorly fitted or top-dose-only effect; inactive = flat fitted curve, though single readings scatter.
assayReadout: Potency

CC(C)=CCC1C(=O)N(c2ccccc2)N(c2ccccc2)C1=O    18.7 µM (active)
Cc1cc(N)c2cc(NC(=O)Nc3ccc4nc(C)cc(N)c4c3)ccc2n1    inactive
COc1cc2c(cc1OC)C(=O)C(CC1CCN(Cc3ccccc3)CC1)C2 (stereo not given)    inactive
CNCC[C@@H](Oc1ccccc1C)c1ccccc1    inactive

The compound listed as O=C(Nc1ccc(Cl)c(Cl)c1)C1CC1 has a reported Potency of inactive

---

Test system: C2A
testName: qHTS profiling for inhibitors of Plasmodium falciparum proliferation (AID 504749); also: nearly all actives have a fitted effect of over 60% in size
experimentalSetup: P. falciparum in erythrocytes, SYBR Green DNA, 72 h; series mostly up to 28.7 µM
Results filed as inconclusive are left out. Calls of active or inactive are those of the source. The call rests on the fitted dose curve; in most records, active means well fitted inhibition curve with a large enough effect; inconclusive means small, poorly fitted or top-dose-only effect; inactive means flat fitted curve, though single readings scatter.
Can you answer with just one of these options? 1 = active, 0 = inactive

CCCCN1CCCC1C(=O)Nc1c(C)cc(C)cc1C (stereo unspecified)    0
CCN(CC)C(=O)/C(C#N)=C/c1cc(O)c(O)c([N+](=O)[O-])c1    0
CC(Cc1cccc(C(F)(F)F)c1)NCCOC(=O)c1ccccc1 (stereo unspecified)    0
Cc1c(C(C)C)c(=O)n(-c2ccccc2)n1C    0
CCN(CCCc1ccccc1)CCCc1ccccc1    0

Which outcome did this test record for the compound N[C@@H](Cc1cnc[nH]1)C(=O)O ?
0

---

System: AS120
testName: qHTS profiling for inhibitors of Plasmodium falciparum proliferation (AID 504749); also: nearly all actives have a fitted effect of over 60% in size
experimentalSetup: P. falciparum in erythrocytes, SYBR Green DNA, 72 h; series mostly up to 28.7 µM
Protocol: NIH National Institute of Allergy and Infectious Diseases [NIAID] NIH Chemical Genomics Center [NCGC] […] Because mature erythrocytes lack DNA, only Plasmodium-derived DNA is detected. NCGC Assay Protocol Summary: The SYBR Green viability assay was adapted from a method described previously (Plouffe et al., 2008). […] The following morning, fluorescence intensity at 485(14) nm excitation and 535(25) nm emission wavelengths was measured on an EnVision (Perkin Elmer) plate reader. […]
Results filed as inconclusive are left out. Active and inactive are the calls of the source. The call rests on the fitted dose curve; in most records, active means well fitted inhibition curve with a large enough effect; inconclusive means small, poorly fitted or top-dose-only effect; inactive means flat fitted curve, though single readings scatter.
Can you answer with just one of these options? 1 for active, 0 for inactive

CCCCCCCCCCCCCCNCCO    1
CCN(CC)CCNC(=O)COc1ccc(Cl)cc1    1
Cc1c(F)c(N2CCNC(C)C2)cc2c1c(=O)c(C(=O)O)cn2C1CC1 (centres undefined)    0

Shifting focus to the compound that follows.
Which outcome did this test record for the compound Nc1ccc(/C=C/c2ccc(N)cc2S(=O)(=O)O)c(S(=O)(=O)O)c1 ?
0

---

Tested on: CP260
testName: qHTS profiling for inhibitors of Plasmodium falciparum proliferation (AID 504749); also: nearly all actives have a fitted effect of over 60% in size
experimentalSetup: P. falciparum in erythrocytes, SYBR Green DNA, 72 h; series mostly up to 28.7 µM
Description: NIH National Institute of Allergy and Infectious Diseases [NIAID] NIH Chemical Genomics Center [NCGC] […] Because mature erythrocytes lack DNA, only Plasmodium-derived DNA is detected. NCGC Assay Protocol Summary: The SYBR Green viability assay was adapted from a method described previously (Plouffe et al., 2008). […] The following morning, fluorescence intensity at 485(14) nm excitation and 535(25) nm emission wavelengths was measured on an EnVision (Perkin Elmer) plate reader. […]
Records with an inconclusive call do not appear. Activity calls are given as the source filed them. Calls follow the shape of the dose curve; as a rule, active = well fitted inhibition curve with a large enough effect; inconclusive = small, poorly fitted or top-dose-only effect; inactive = flat fitted curve, though single readings scatter.
Can you answer with just one of these options? active, inactive

CCCCCCCCCCCCCCNCCO    active

Which outcome did this test record for the compound c1ccc(OCc2ccc(CCCN3CCOCC3)cc2)cc1 ?
inactive

Which outcome did this test record for the compound O=C1OC(c2ccc(O)cc2)(c2ccc(O)cc2)c2ccccc21 ?
inactive

Which outcome did this test record for the compound N[C@@H](Cc1cnc[nH]1)C(=O)O ?
inactive

Which outcome did this test record for the compound COC1=CC(=O)C[C@@H](C)[C@]12Oc1c(Cl)c(OC)cc(OC)c1C2=O ?
inactive

Which outcome did this test record for the compound CCOc1ccc(NC(=O)CC(C)O)cc1 (configuration not stated) ?
inactive

Which outcome did this test record for the compound CC(C)(C(=O)c1cccnc1)c1cccnc1 ?
inactive

Which outcome did this test record for the compound C[C@@H](CN(C)C)CN1c2ccccc2Sc2ccccc21 ?
inactive

Which outcome did this test record for the compound OCc1ccccc1O ?
inactive

Which outcome did this test record for the compound N[C@H](CO)C(=O)O ?
inactive

Which outcome did this test record for the compound CCCCC1=NC2(CCCC2)C(=O)N1Cc1ccc(-c2ccccc2-c2nn[nH]n2)cc1 ?
inactive

Which outcome did this test record for the compound O=C(O)CNC(=O)c1ccccc1 ?
inactive

Which outcome did this test record for the compound O=C(COc1ccc(Cl)cc1)N1CCN(Cc2ccc3c(c2)OCO3)CC1 ?
inactive

Which outcome did this test record for the compound CCN(CC)C(=O)N1CCN(C)CC1 ?
inactive

Which outcome did this test record for the compound CCCCCCCCCCCCCCCCCC(=O)OCC(O)CO (configuration not stated) ?
inactive

Which outcome did this test record for the compound Cc1ncc(CSSCc2cnc(C)c(O)c2CO)c(CO)c1O ?
inactive

Which outcome did this test record for the compound CCOC(=O)c1cccc(N)c1 ?
inactive
